Measured values drawn from ChEMBL document CHEMBL1201861 for this set.

For each entry below, report its IC50 value.
tested on: SW780; experiment: cells; assay type: functional, cell-based, Homo sapiens; settings: Homo sapiens, SW780;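 also: growth inhibition of the cells, read out with a cell viability assay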
Description: SANGER: Inhibition of human SW780 cell growth in a cell viability assay.
One number for each entry, in µM.

Could I get IC50 for every one of these entries?
1. COc1ccc(C2=N[C@@H](c3ccc(Cl)cc3)[C@@H](c3ccc(Cl)cc3)N2C(=O)N2CCNC(=O)C2)c(OC(C)C)c1 [NUTLIN-3]
2. Nc1ccn([C@@H]2O[C@H](CO)[C@@H](O)[C@@H]2O)c(=O)n1 [CYTARABINE]
3. C=CCNC1=C2C[C@@H](C)C[C@H](OC)[C@H](O)[C@@H](C)/C=C(\C)[C@H](OC(N)=O)[C@@H](OC)/C=C\C=C(/C)C(=O)NC(=CC1=O)C2=O [TANESPIMYCIN]

1. 2.51
2. 1.32
3. 0.042

Summary for this molecule, CCC1=C[C@@H]2CN(C1)Cc1c([nH]c3ccccc13)[C@@](C(=O)OC)(c1cc3c(cc1OC)N(C)[C@H]1[C@@](O)(C(=O)OC)[C@H](OC(C)=O)[C@]4(CC)C=CCN5CC[C@]31[C@@H]54)C2 [VINORELBINE] : IC50 is 0.0149

----------
For each entry below, report its pIC50 value.
tested on: HC-1; test: cells; format: functional, cell-based; details: Homo sapiens;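 also: growth inhibition of HC-1 cells measured by a cell viability assay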
Description: SANGER: Inhibition of human HC-1 cell growth in a cell viability assay.
pIC50: −log10 of the molar value.

Cc1cc([C@@H](C)Nc2ccccc2C(=O)O)c2nc(N3CCOCC3)cc(=O)n2c1 [AZD-6482] | < 5.29

Could I get pIC50 for every one of these entries?
1. Cc1ccc(Nc2nccc(N(C)c3ccc4c(C)n(C)nc4c3)n2)cc1S(N)(=O)=O [PAZOPANIB]
2. CO[C@H]1C[C@@H]2CC[C@@H](C)[C@@](O)(O2)C(=O)C(=O)N2CCCC[C@H]2C(=O)O[C@H]([C@H](C)C[C@@H]2CC[C@@H](O)[C@H](OC)C2)CC(=O)[C@H](C)/C=C(\C)[C@@H](O)[C@@H](OC)C(=O)[C@H](C)C[C@H](C)/C=C/C=C/C=C/1C [SIROLIMUS]
3. Cn1cncc1[C@@](N)(c1ccc(Cl)cc1)c1ccc2c(c1)c(-c1cccc(Cl)c1)cc(=O)n2C [TIPIFARNIB]
4. C=CCc1cccc(/C=N/NC(=O)CN2CCN(Cc3ccccc3)CC2)c1O [PAC-1]
5. CNC(=O)c1cc(Oc2ccc(NC(=O)Nc3ccc(Cl)c(C(F)(F)F)c3)cc2)ccn1 [SORAFENIB]
6. C[C@]1(O)C[C@@H](c2nc(-c3ccc4ccc(-c5ccccc5)nc4c3)c3c(N)nccn32)C1 [LINSITINIB]
7. O=C(NOCC1CC1)c1ccc(F)c(F)c1Nc1ccc(I)cc1Cl [CI-1040]

1: < 5.10; 2: < 7.00; 3: 5.76; 4: 5.73; 5: < 5.40; 6: < 5.59; 7: < 5.00

Could I get pIC50 for every one of these entries?
1. CN(Cc1cnc2nc(N)nc(N)c2n1)c1ccc(C(=O)N[C@@H](CCC(=O)O)C(=O)O)cc1 [METHOTREXATE]
2. CC1=C2C[C@H]3[C@@H](CC=C4C[C@@H](O)CC[C@@]43C)[C@@H]2CC[C@]12O[C@@H]1C[C@H](C)CN[C@H]1[C@H]2C [CYCLOPAMINE]
3. Nc1ccn([C@@H]2O[C@H](CO)[C@@H](O)[C@@H]2O)c(=O)n1 [CYTARABINE]

1. 7.16
2. < 4.80
3. 5.97
